- target.under.test: Autotaxin (Homo sapiens, UniProt Q13822)
- Construct: from tissue; host or cells: pooled human plasma
- experiment.summary: LPA formation in pooled human plasma (ex vivo autotaxin inhibition)
- Type: biochemical
- study.conditions: 2 hours incubation, LPA 18:2 by LC/MS/MS, read-out: LPA formation (18:2) (IC50)
measured.quantity: IC50

Examples with answers:
[
  {
    "molecule": "CCc1nn2cc(F)c(N3CC4(CN(C(=O)N5CC(O)C5)C4)C3)cc2c1N(C)c1nc(-c2ccc(F)cc2)c(C#N)s1",
    "IC50": "≤ 0.1 µM"
  },
  {
    "molecule": "CCc1nn2c(C)cc(N3CC4(CN(C(=O)c5ccco5)C4)C3)cc2c1N(C)c1nc(-c2ccc(F)cc2)c(C#N)s1",
    "IC50": "≤ 0.1 µM"
  },
  {
    "molecule": "CCc1nn2ccc(N3CC4(CC4C(=O)N4CC(O)C4)C3)cc2c1N(C)c1nc(-c2ccc(F)cc2)c(C#N)s1 (stereo not shown)",
    "IC50": "0.1 to 0.5 µM"
  }
]

Then this molecule:
Look up IC50 of `CCc1nn2cc(F)c(N3CC4(CN(C(=O)N5CCN(C)CC5)C4)C3)cc2c1N(C)c1nc(-c2ccc(F)cc2)c(C#N)s1` and report it. ≤ 0.1 µM

---

- experiment.summary: Pharmacokinetics in beagle dogs
- Assay type: in vivo
- study.conditions: male, dog, plasma, iv, I.V. (1 mg/kg)
measured.quantity: AUC (ng·h/mL)

Field: example entries. Status: answers known.
[
  {
    "smiles.notation": "CCc1nn2cc(F)c(N3CC4(CN(C(=O)[C@H]5CCOC5)C4)C3)cc2c1N(C)c1nc(-c2ccc(F)cc2)c(C#N)s1",
    "measured.quantity": "AUC",
    "measurement": 6480
  },
  {
    "smiles.notation": "CCc1nn2cc(F)c(N3CCN(CC(=O)N4CC(O)C4)CC3)cc2c1N(C)c1nc(-c2ccc(F)cc2)c(C#N)s1",
    "measured.quantity": "AUC",
    "measurement": 10700
  }
]

(I) CCc1nc2c(C)cc(N3CCN(CC(=O)N4CC(O)C4)CC3)cn2c1N(C)c1nc(-c2ccc(F)cc2)c(C#N)s1
(II) CCn1nc2ncc(N3CC4(CN(C(=O)C5CCOCC5)C4)C3)cc2c1N(C)c1nc(-c2ccc(F)cc2)c(C#N)s1
Consider entries I and II . Which has the numerically lower AUC? Mark your selection by writing its label. II

---

- experiment.summary: Pharmacokinetics after a single oral dose in SD rats
- Type: in vivo
- study.conditions: Sprague-Dawley, rat, plasma, single oral dose in 0.5% methylcellulose
measured.quantity: Cmax (ng/mL)

[
  {
    "smiles.notation": "CCn1nc2nc(C)c(N3CC4(CN(C(=O)C5CCOCC5)C4)C3)cc2c1N(C)c1nc(-c2ccc(F)cc2)c(C#N)s1",
    "result.unit": "ng/mL",
    "Cmax": 403
  },
  {
    "smiles.notation": "CCc1nn2cc(F)c(N3CC4(CN(C(=O)C5(O)CCOCC5)C4)C3)cc2c1N(C)c1nc(-c2ccc(F)cc2)c(C#N)s1",
    "result.unit": "ng/mL",
    "Cmax": 460
  },
  {
    "smiles.notation": "[2H]c1c(F)c(N2CCN(CC(=O)N3CC(O)C3)CC2)cc2c(N(C)c3nc(-c4ccc(F)cc4)c(C#N)s3)c(CC)nn12",
    "result.unit": "ng/mL",
    "Cmax": 209
  }
]

(I) CN(c1nc(-c2ccc(F)cc2)c(C#N)s1)c1c(C2CC2)nn2cc(F)c(N3CCN(CC(=O)N4CC(O)C4)CC3)cc12
(II) CCn1nc2ncc(N3CC4(CN(C(=O)C5CCOCC5)C4)C3)cc2c1N(C)c1nc(-c2ccc(F)cc2)c(C#N)s1
In the pair I and II , the larger recorded Cmax belongs to which? Mark your selection by writing its label. II
